Kindly state cell viability for each of the entries shown.
- Tested on: Vero E6
- TEST_SUMMARY: cell viability relative to DMSO; higher = less toxic
- CONDITION_SET: 72 h; 10 nM
Numbers only, in %.

Past entries and their recorded results:
SMILES_NOTATION	MEASURED_PROPERTY	RECORDED_MEASUREMENT
O=C(O)CCN(O)C(=O)CCCCCCCCC1CC1	cell viability	99.2
CC(=O)[C@H]1CC[C@H]2[C@@H]3CCC4=CC(=O)CC[C@]4(C)[C@H]3CC[C@]12C	cell viability	108
C#Cc1cccc(Nc2ncnc3cc(OCCOC)c(OCCOC)cc23)c1	cell viability	104
C[C@H]1c2cccc(O)c2C(=O)C2=C(O)[C@]3(O)C(=O)C(C(N)=O)=C(O)[C@@H](N(C)C)[C@@H]3[C@@H](O)[C@@H]21	cell viability	95.8
CCCCCCCCN=c1ccn(CCCCCCCCCCn2ccc(=NCCCCCCCC)cc2)cc1	cell viability	94.7
COCCNC(=O)Cn1cnc([N+](=O)[O-])n1	cell viability	99.1
COc1cccc([C@H](O)C2CCN(CCc3ccc(F)cc3)CC2)c1OC	cell viability	99.9
CCCCc1ccc(NS(=O)(=O)c2ccc(F)cc2)cc1	cell viability	101

# ---- query molecule ----
So what does the record say about cell viability for O=C1NCCN1c1ncc([N+](=O)[O-])s1 ?
104

====

- Tested on: HepG2
- TEST_SUMMARY: cell viability relative to DMSO; higher = less toxic
- CONDITION_SET: 72 h; 100 nM
MEASURED_PROPERTY: cell viability (%)
Give bare numbers, in %.

COMPOUND	cell viability / %
CSc1ccc2c(c1)N(CCC1CCCCN1C)c1ccccc1S2 (stereo unspecified)	104
CC(C)c1noc(N2CCC(COc3ccc(-c4ccc(S(C)(=O)=O)cc4)nc3)CC2)n1	109
OCc1cccnc1 [nicotinyl-alcohol-tartrate]	91.2
O=C(C1CCCCC1)N1CC(=O)N2CCc3ccccc3C2C1 (stereo unspecified)	107
CCOC(=O)c1ccc(O)cc1	101
NC(=O)c1ccccc1O [salicylamide]	98.5
C[C@@H]1CCCN1CCc1cc2cc(-c3ccc(C#N)cc3)ccc2o1	94.8
C[C@H](NC(=O)C(C)(C)Oc1ccc(C(F)(F)F)cn1)[C@@H](Cc1ccc(Cl)cc1)c1cccc(C#N)c1	111

Go through the items and report each one's cell viability.
1. CCN(c1ccccc1)c1cc(=NC)n(C)c(C)n1
2. COc1ccc(C(=O)c2c(C)n(CCN3CCOCC3)c3cc(I)ccc23)cc1

[99.4, 104]

Record cell viability per entry; entries follow.
1. CCCc1c(OCC(O)COc2ccc3c(=O)cc(C(=O)O)oc3c2CCC)ccc(C(C)=O)c1O (stereo unspecified)
2. CCS(=O)(=O)N1CCC([C@@H](C)n2c(C)c(C(=O)NCc3c(OC)cc(C)[nH]c3=O)c3ccccc32)CC1
3. COc1ccc(C(=O)c2c(C)n(CCN3CCOCC3)c3ccccc23)cc1

1: 96.9; 2: 104; 3: 108

====

- Tested on: HepG2
- TEST_SUMMARY: relative viability EC50 (midpoint between 100% and the lowest measured viability); higher = less toxic
- CONDITION_SET: 72 h
Provide the reported relative viability EC50 of each item.

Some compounds with recorded relative viability EC50:
COMPOUND	RECORDED_MEASUREMENT
C=CC(=O)c1ccc2ccccc2c1	> 10 µM
CC(=O)N1CCC[C@H]1C(=O)N[C@@H](Cc1cnc[nH]1)C(=O)N[C@@H](CO)C(=O)N[C@@H](CS)C(=O)N[C@@H](CC(N)=O)C(N)=O	> 10 µM
CN1CC(=O)N=C1NC(=O)Nc1cccc(Cl)c1	> 10 µM
COc1ccc2cc1Oc1ccc(cc1)C[C@H]1c3c(cc4c(c3Oc3cc5c(cc3OC)CCN(C)[C@@H]5C2)OCO4)CCN1C	> 10 µM

Go through the items and report each one's relative viability EC50.
1. N#Cc1ccc(N(Cc2ccc(Br)cc2)n2cnnc2)cc1
2. NC1CCN(c2nc3c(cc2F)c(=O)c(C(=O)O)cn3-c2ccc(F)cc2F)C1 (stereo not drawn)
3. N#CCC1(n2cc(-c3ncnc4[nH]ccc34)cn2)CN(C2CCN(C(=O)c3ccnc(C(F)(F)F)c3F)CC2)C1

1: > 10 µM; 2: > 10 µM; 3: > 10 µM

Report relative viability EC50 for Cc1ncc(Cl)cc1NCc1ccc(C(=O)N[C@@H](CC2CCCC2)C(=O)NC2CC2)s1 please.
> 10 µM
